Biological target: human TAAR1 receptor (Homo sapiens)
Sequence (Q96RJ0 whole entry): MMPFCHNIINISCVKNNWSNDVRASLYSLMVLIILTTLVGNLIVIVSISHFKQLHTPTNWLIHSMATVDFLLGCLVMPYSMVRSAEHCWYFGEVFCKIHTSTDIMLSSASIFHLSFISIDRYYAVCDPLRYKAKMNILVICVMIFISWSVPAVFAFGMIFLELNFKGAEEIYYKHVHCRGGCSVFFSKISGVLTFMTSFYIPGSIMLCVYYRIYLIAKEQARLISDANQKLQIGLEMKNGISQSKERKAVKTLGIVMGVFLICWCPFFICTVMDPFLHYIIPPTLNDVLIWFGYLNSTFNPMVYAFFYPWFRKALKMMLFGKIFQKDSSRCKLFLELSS
Assay: Human TAAR1 agonist assay
Details: EC50 ratio versus β-PEA (2)
Quantity: fold less active for TAAR1 than β-PEA (2)

Entry NCCc1cccc(O)c1 [compound 5, m-tyramine, reference compound] ; fold less active for TAAR1 than β-PEA (2) = ~23 fold
